src = patent US20090069300A1

- subjectOfTest: Human Histamine H3 Receptor (Homo sapiens)
- Construct: expressed in transfected cells; host or cells: HEK293T (stably transfected; membranes prepared from the cells)
- Sequence (Q9Y5N1 whole entry): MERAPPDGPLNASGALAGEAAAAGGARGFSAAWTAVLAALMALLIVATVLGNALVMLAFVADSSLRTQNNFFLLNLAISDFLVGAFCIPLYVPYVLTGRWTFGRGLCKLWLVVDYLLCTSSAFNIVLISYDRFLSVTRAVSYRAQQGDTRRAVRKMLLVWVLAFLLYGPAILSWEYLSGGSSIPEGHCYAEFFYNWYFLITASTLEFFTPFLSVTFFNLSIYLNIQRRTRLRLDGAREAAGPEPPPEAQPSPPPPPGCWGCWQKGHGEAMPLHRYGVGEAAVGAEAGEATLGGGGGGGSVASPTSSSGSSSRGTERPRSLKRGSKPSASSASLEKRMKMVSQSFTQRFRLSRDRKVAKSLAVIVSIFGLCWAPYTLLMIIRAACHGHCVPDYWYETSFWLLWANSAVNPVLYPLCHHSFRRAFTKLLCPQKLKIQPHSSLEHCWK
- assayNotes: Methyl histamine binding in human histamine H3 receptor cell line
pKi: −log10 of the molar value.
measurementName: pKi

> print(dat)
                                smilesentry  measurementname  assayvalue
1  O=C(NCCCl)c1ccc(-c2ccc3c(c2)CCN(CCN2CCCC2)C3=O)cc1              pKi      > 8.00

###

Structures can show the parent of a compound that is named as a salt.
measurementName: melting point

> print(dat)
                                   compound  measurementname       assayvalue
1  CNC(=O)c1ccc(-c2ccc3c(c2)CCN(CCN2CCC[C@H]2C)C3=O)cc1 (as salt: hydrochloride)    melting point    258 to 260 °C
2  CN1CCc2cc(-c3ccc4c(c3)CCN(CCN3CCCC3)C4=O)ccc2C1=O (as salt: hydrochloride)    melting point    225 to 226 °C
3  C[C@H]1CCCN1CCN1CCc2cc(-c3ccc(F)cc3)ccc2C1=O (as salt: hydrochloride)    melting point    244 to 247 °C
4  O=C(NCc1cccs1)c1ccc(-c2ccc3c(c2)CCN(CCN2CCCC2)C3=O)cc1 (as salt: hydrochloride)    melting point  211 to 213.5 °C
5  N#Cc1ccc2c(ccn2-c2ccc3c(c2)CCN(CCN2CCCC2)C3=O)c1 (as salt: hydrochloride)    melting point    215 to 217 °C
6  C[C@H]1CCCN1C(=O)c1ccc(-c2ccc3c(c2)CCN(CCN2CCCC2)C3=O)cc1 (as salt: hydrochloride)    melting point    171 to 172 °C
7  CS(=O)(=O)c1ccc(-c2ccc3c(c2)CCN(CCN2CCCC2)C3=O)cc1    melting point    153 to 155 °C
